# viability, T/C annotations
# Tested on: 349418-098-R-PDC spheroids, viability, % test/control;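 further: spheroids exposed to compounds for 7 days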
# measurement notes: Anticancer human tumor 349418-098-R-PDC patient-derived lung adenocarcinoma cell line growth inhibition [IpAb]
# reported conditions: second compound 0.316 µM; first compound 3 µM; active compounds read low; spheroids with HUVEC and MSC
Give just the numeric value; % need not be written.

[[record]]
molecule = "Cn1cnc2c(F)c(Nc3ccc(Br)cc3Cl)c(C(=O)NOCCO)cc21 + CC(C)NCC(C(=O)N1CCN(c2ncnc3c2C(C)CC3O)CC1)c1ccc(Cl)cc1"
target_under_test = "349418-098-R-PDC spheroids, viability, % test/control"
readout_name = "viability, T/C"
test_value = 7.06

[[record]]
molecule = "CC(C)(C)c1cnc(CSc2cnc(NC(=O)C3CCNCC3)s2)o1 + CCN1CCN(Cc2ccc(Nc3ncc(F)c(-c4cc(F)c5nc(C)n(C(C)C)c5c4)n3)nc2)CC1"
target_under_test = "349418-098-R-PDC spheroids, viability, % test/control"
readout_name = "viability, T/C"
test_value = 2.48

[[record]]
molecule = "Cn1cnc2c(F)c(Nc3ccc(Br)cc3Cl)c(C(=O)NOCCO)cc21 + CCN1CCN(Cc2ccc(Nc3ncc(F)c(-c4cc(F)c5nc(C)n(C(C)C)c5c4)n3)nc2)CC1"
target_under_test = "349418-098-R-PDC spheroids, viability, % test/control"
readout_name = "viability, T/C"
test_value = 7.04


For the molecule CC(C)(C)c1cnc(CSc2cnc(NC(=O)C3CCNCC3)s2)o1 + CC(C)NCC(C(=O)N1CCN(c2ncnc3c2C(C)CC3O)CC1)c1ccc(Cl)cc1 , give its measured viability, T/C value. 1.75
